Would you mind telling me the reported folding stability dG of each entry?
B1: EEHEE_rd4_0647 (parent)
chain: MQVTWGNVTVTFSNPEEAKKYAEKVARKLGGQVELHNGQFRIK

# Variants of: B1
# PROTOCOL_SUMMARY: folding stability dG (cDNA display proteolysis); higher = more stable
# CONDITIONS_USED: PBS, room temperature
Only the number, expressed in kcal/mol, is required.

Q: Give the measured folding stability dG of MQVTWGNVTVTFSNPEYAKKYAEKVARKLGGQVELHNGQFRIK [E17Y] .
Ans: 2.58

Q: Give the measured folding stability dG of MQVTWGNVTVTFSNVEEAKKYAEKVARKLGGQVELHNGQFRIK [P15V] .
Ans: 2.93

Q: Give the measured folding stability dG of MQVTWGNVTVTFSNPEEAKKYAEKVARKLGGQVELHNGCFRIK [Q39C] .
Ans: 2.68

Q: Give the measured folding stability dG of MQVTWGNVDVTFSNPEEAKKYAEKVARKLGGQVELHNGQFRIK [T9D] .
Ans: 0.892

Q: Give the measured folding stability dG of MQVTWGNVTVTFSNPEEAKKYAEKQARKLGGQVELHNGQFRIK [V25Q] .
Ans: 1.87

Q: Give the measured folding stability dG of MQVTWGNVTVTFSNPEEAKKYAEAVARKLGGQVELHNGQFRIK [K24A] .
Ans: 3.01

Q: Give the measured folding stability dG of MQVTWGNVTVTFSNPEEAKKYAEKVARKLGGQVELHLGQFRIK [N37L] .
Ans: 2.14

Q: Give the measured folding stability dG of MQVTWGNVTVTASNPEEAKKYAEKVARKLGGQVELHNGQFRIK [F12A] .
Ans: 0.449

Q: Give the measured folding stability dG of MQVTWGNGTVTFSNPEEAKKYAEKVARKLGGQVELHNGQFRIK [V8G] .
Ans: 1.49

Q: Give the measured folding stability dG of MQVTWGNVTVTFSNPEEAKKYAEKVARKLGGQVELHTGQFRIK [N37T] .
Ans: 1.36

Q: Give the measured folding stability dG of MQVTWGNVTVTFSNPQEAKKYAEKVARKLGGQVELHNGQFRIK [E16Q] .
Ans: 2.7

Q: Give the measured folding stability dG of MQVTWGNVTVTFSNPEEAKKYAEKVARKLGGQVVLHNGQFRIK [E34V] .
Ans: 2.81

Q: Give the measured folding stability dG of MQVTWGNVTVTFSNPEEAKKYAEKVARKLGGQVEPHNGQFRIK [L35P] .
Ans: 1.3

Q: Give the measured folding stability dG of MQVTWGNVTVTFSNPEEAKKYAEKVARKLGQQVELHNGQFRIK [G31Q] .
Ans: 1.87

Q: Give the measured folding stability dG of MQVTWGNVTVTFSNPEEAYKYAEKVARKLGGQVELHNGQFRIK [K19Y] .
Ans: 2.94

Q: Give the measured folding stability dG of MQVTWGNVTVTFSNPREAKKYAEKVARKLGGQVELHNGQFRIK [E16R] .
Ans: 2.55

Q: Give the measured folding stability dG of MQVTWGNVTVTFSNPEEAKKYAEVVARKLGGQVELHNGQFRIK [K24V] .
Ans: 2.59

Q: Give the measured folding stability dG of MQVTWGNVTVTFSNPEEAKKYQEKVARKLGGQVELHNGQFRIK [A22Q] .
Ans: 0.207

Q: Give the measured folding stability dG of MQVTWGNVTVTFSNPEEAKKYALKVARKLGGQVELHNGQFRIK [E23L] .
Ans: 2.7

Q: Give the measured folding stability dG of MQLTWGNVTVTFSNPEEAKKYAEKVARKLGGQVELHNGQFRIK [V3L] .
Ans: 1.35

Q: Give the measured folding stability dG of MQVTWGNVTVTFSNPEEAKKYAEKVARKLGGQVELHSGQFRIK [N37S] .
Ans: 1.93

Q: Give the measured folding stability dG of MQVTWGNVTVTFSNPEEAKKYAEKVARKLGGHVELHNGQFRIK [Q32H] .
Ans: 2.89

Q: Give the measured folding stability dG of MQVTWGNVTVTFSNPEEAKKYAEKVARKLGGQVQLHNGQFRIK [E34Q] .
Ans: 2.25

Q: Give the measured folding stability dG of MQVTWGNVTVTFSNPEEAKKYAEKVARKLGWQVELHNGQFRIK [G31W] .
Ans: 2.39

Q: Give the measured folding stability dG of MQVTWGNVTVTFSNPEEAKKYAEKVARKLVGQVELHNGQFRIK [G30V] .
Ans: 1.45

Q: Give the measured folding stability dG of MQVTWGNVTVTFSNPEEAKKYAEKVARKLGGQVELHNGAFRIK [Q39A] .
Ans: 2.73

Q: Give the measured folding stability dG of MQVTWGNSTVTFSNPEEAKKYAEKVARKLGGQVELHNGQFRIK [V8S] .
Ans: 2.01

Q: Give the measured folding stability dG of MQVTWGNVTVTFSLPEEAKKYAEKVARKLGGQVELHNGQFRIK [N14L] .
Ans: 2.23

Q: Give the measured folding stability dG of MQVTWGNVTVTFSNPEEAKKYAEPVARKLGGQVELHNGQFRIK [K24P] .
Ans: -0.146

Q: Give the measured folding stability dG of MQVTQGNVTVTFSNPEEAKKYAEKVARKLGGQVELHNGQFRIK [W5Q] .
Ans: 0.719

Q: Give the measured folding stability dG of MQVTWGNVTVTFSNPEEAKKYAEKVARKLGGQVELHNGQFRVK [I42V] .
Ans: 2.52

Q: Give the measured folding stability dG of MQVTWGNVHVTFSNPEEAKKYAEKVARKLGGQVELHNGQFRIK [T9H] .
Ans: 1.77

Q: Give the measured folding stability dG of MQVTWGNVTVTFSNPNEAKKYAEKVARKLGGQVELHNGQFRIK [E16N] .
Ans: 2.56

Q: Give the measured folding stability dG of MQVTWMNVTVTFSNPEEAKKYAEKVARKLGGQVELHNGQFRIK [G6M] .
Ans: 2.32

Q: Give the measured folding stability dG of MQVTWGNVTVTFSNPEEAKKYAEKVARKCGGQVELHNGQFRIK [L29C] .
Ans: 2.92

Q: Give the measured folding stability dG of MQVTWGNVTVTFSNPEEAKKYAEKVARKLGGQVELHNGQFIIK [R41I] .
Ans: 3.53

Q: Give the measured folding stability dG of MQVTWGNVTVLFSNPEEAKKYAEKVARKLGGQVELHNGQFRIK [T11L] .
Ans: 2.62

Q: Give the measured folding stability dG of MQVTWGNVTVTFSNPEEAKKQAEKVARKLGGQVELHNGQFRIK [Y21Q] .
Ans: 0.996

Q: Give the measured folding stability dG of MQVTWGNVTVTFSNPEEAKKYAEKVARKLGGQVELHNGQFWIK [R41W] .
Ans: 3.15

Q: Give the measured folding stability dG of MQVTWGNVTVTFSDPEEAKKYAEKVARKLGGQVELHNGQFRIK [N14D] .
Ans: 2.79

Q: Give the measured folding stability dG of MQVTWGNVTVIFSNPEEAKKYAEKVARKLGGQVELHNGQFRIK [T11I] .
Ans: 2.71

Q: Give the measured folding stability dG of MQVTWGNYTVTFSNPEEAKKYAEKVARKLGGQVELHNGQFRIK [V8Y] .
Ans: 2.84

Q: Give the measured folding stability dG of MQVTWGNVTVTFSNPEEAKKYAEKVARKLGGQVELHNGQFRAK [I42A] .
Ans: 0.487

Q: Give the measured folding stability dG of MQVTWGNVTVTFSNPEEAKKYAEKVARKLGGQVELHNGQRRIK [F40R] .
Ans: 0.666

Q: Give the measured folding stability dG of MQVTWGNVTVTFSNPEEAKKYMEKVARKLGGQVELHNGQFRIK [A22M] .
Ans: 1.48

Q: Give the measured folding stability dG of MQVTWGNVTVTFSYPEEAKKYAEKVARKLGGQVELHNGQFRIK [N14Y] .
Ans: 1.91

Q: Give the measured folding stability dG of MQVTWANVTVTFSNPEEAKKYAEKVARKLGGQVELHNGQFRIK [G6A] .
Ans: 2.25

Q: Give the measured folding stability dG of MQVTWGNVTVTFSNPEEAKKYAEKVARKLGGQVELHNIQFRIK [G38I] .
Ans: 0.887

Q: Give the measured folding stability dG of MQVWWGNVTVTFSNPEEAKKYAEKVARKLGGQVELHNGQFRIK [T4W] .
Ans: 2.11

Q: Give the measured folding stability dG of MQVTWGNVTVTFSNPEEAKKYAEKVARKLGGQVELHNGQFRIG [K43G] .
Ans: 2.04

Q: Give the measured folding stability dG of MQVTWGNVTVTFSNPEEAKKYAEKVARKLCGQVELHNGQFRIK [G30C] .
Ans: 3.02

Q: Give the measured folding stability dG of MQVTWFNVTVTFSNPEEAKKYAEKVARKLGGQVELHNGQFRIK [G6F] .
Ans: 2.55

Q: Give the measured folding stability dG of MQVTWGNVTVTFSNPEEAKKYAEKVARKLGIQVELHNGQFRIK [G31I] .
Ans: 2.01

Q: Give the measured folding stability dG of MQVTWGNVTVTFSNPEEAKKYAENVARKLGGQVELHNGQFRIK [K24N] .
Ans: 2.5

Q: Give the measured folding stability dG of MQVTWGNVTVTFSNPEEAKKYAEKEARKLGGQVELHNGQFRIK [V25E] .
Ans: 0.927

Q: Give the measured folding stability dG of MQVTWGNVTVTFSNPEEAKKYAEKVARKLGGQVELHNGQFRQK [I42Q] .
Ans: 0.449

Q: Give the measured folding stability dG of MQVTWGNVTVTFSNPEEAKKYAEKVARKLGGQVELHNGQFRIF [K43F] .
Ans: 2.96

Q: Give the measured folding stability dG of QQVTWGNVTVTFSNPEEAKKYAEKVARKLGGQVELHNGQFRIK [M1Q] .
Ans: 2.03

Q: Give the measured folding stability dG of MQVTWGNVTVTFSNPEEAKKYAEKVARKLGGQVELENGQFRIK [H36E] .
Ans: 2.78

Q: Give the measured folding stability dG of MQVTWGNVTLTFSNPEEAKKYAEKVARKLGGQVELHNGQFRIK [V10L] .
Ans: 2.76
